For each of the molecules below, state its Potency.
- Subject of test: Glucocorticoid receptor (Homo sapiens)
- Protocol text: GR-GFP Redistribution (AID 450); further: potency means the concentration at half of the fitted maximal effect
- Reported conditions: U2OS GR-GFP nuclear translocation, laser cytometry, 2 h
The source made the active and inactive calls.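 How the source made its calls: active means compounds whose dose series gives a full or clear partial fitted curve of increased nuclear translocation; inconclusive means weak partial curve or effect only at the top dose; inactive means no dose-dependent translocation response.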

Previously resolved entries follow.
Data request: Form field: reported Potency of Nc1ccc(S(N)(=O)=O)cc1
Data returned: > 20.6 µM (inactive)

Data request: Form field: reported Potency of CCOC(=O)C1=C(O)C(=O)N(Cc2ccccc2)C1
Data returned: > 46 µM (inactive)

Data request: Form field: reported Potency of c1ccc2[nH]c(-c3cscn3)nc2c1
Data returned: > 20.6 µM (inactive)

Data request: Form field: reported Potency of CC(C)c1ccc2c(c1)c(SC(C)(C)C)c(CC(C)(C)C(=O)O)n2Cc1ccc(Cl)cc1
Data returned: > 46 µM (inactive)

Here are 6 molecules. What values of Potency were reported for them?
1. COc1cc(OC)c(C(=O)CCCN2CCCC2)c(OC)c1
2. Nc1nc(OCc2ccccc2)c2[nH]cnc2n1
3. NCCCCNCCCN
4. CC(=O)N1CCN(c2ccc(OC[C@H]3CO[C@](Cn4ccnc4)(c4ccc(Cl)cc4Cl)O3)cc2)CC1
5. O=C1NC(=O)C(c2ccccc2[N+](=O)[O-])=C1Nc1ccc(O)c(Cl)c1
6. O=c1cc(N2CCOCC2)oc2c(-c3ccccc3)cccc12

Data returned:
1. > 20.6 µM (inactive)
2. > 46 µM (inactive)
3. > 46 µM (inactive)
4. > 46 µM (inactive)
5. > 46 µM (inactive)
6. > 46 µM (inactive)

Here are 4 molecules. What values of Potency were reported for them?
1. COc1ccccc1N1CCN(CCN(C(=O)C2CCCCC2)c2ccccn2)CC1
2. CC(C)(S)[C@@H](N)C(=O)O
3. CCN(CC)CCOc1ccc(Cc2ccccc2)cc1
4. CC(C)Oc1ccc2c(=O)c(-c3ccccc3)coc2c1

Data returned:
["> 46 µM (inactive)", "> 20.6 µM (inactive)", "> 46 µM (inactive)", "> 20.6 µM (inactive)"]

Here are 2 molecules. What values of Potency were reported for them?
1. Oc1ccc(-c2nc(-c3ccc(F)cc3)c(-c3ccncc3)[nH]2)cc1
2. CCOc1cc(CC(=O)N[C@@H](CC(C)C)c2ccccc2N2CCCCC2)ccc1C(=O)O

Data returned:
1. > 46 µM (inactive)
2. 2.1 µM (active)

Here are 4 molecules. What values of Potency were reported for them?
1. CCC1=C(C)CN(C(=O)NCCc2ccc(S(=O)(=O)NC(=O)NC3CCC(C)CC3)cc2)C1=O (configuration not stated)
2. CCc1nc(N)nc(N)c1-c1ccc(Cl)cc1
3. Oc1ccc(OCc2ccccc2)cc1
4. CCCOc1ccc2nc(NC(=O)OC)[nH]c2c1

Data returned:
> 20.6 µM (inactive)
> 20.6 µM (inactive)
> 20.6 µM (inactive)
> 20.6 µM (inactive)

Here are 2 molecules. What values of Potency were reported for them?
1. COc1cc2nc(N3CCN(C(=O)C4CCCO4)CC3)nc(N)c2cc1OC (configuration not stated)
2. Nc1nc(Cl)nc2c1ncn2[C@H]1C[C@H](O)[C@@H](CO)O1

Data returned:
["> 20.6 µM (inactive)", "> 20.6 µM (inactive)"]
